This collection of values is drawn from PubChem BioAssay.

target: Fibroblast growth factor 10 (Homo sapiens); experiment: FGF10 binders on small-molecule microarrays, primary screen, biochemical, small-molecule microarray, 635 nm fluorescence (AID 1102); details: FGF10 binding, fluorescence 635 nm, higher = more signal
Mark Not satisfied for composite z-score values under 0.004, and Satisfied for everything at or above.

line_notation=C[C@@H]1C=CCC(=O)OC[C@H](C)C(=O)N2CCC[C@H]2C(=O)OC1 class_label=Satisfied
line_notation=O=C1[C@H]2[C@H]3[C@H](O)[C@H](O)CC(=NO[C@@H]4O[C@H](CO)[C@@H](O)[C@H](O)[C@H]4O)[C@H]3CC[C@H]2C(=O)N1Cc1ccc2c(c1)OCO2 class_label="Not satisfied"
line_notation=CC(C)(C)N1C(=O)[C@H]2[C@H]3[C@H](O)[C@H](O)CC(=NO[C@@H]4O[C@H](CO)[C@@H](O)[C@H](O)[C@H]4O)[C@@H]3CC[C@H]2C1=O class_label=Satisfied
line_notation=CCc1cc2c(nc1CC)CCN(CCC(C)=NO[C@@H](C)c1cc(-c3c(C)cc(C)cc3C)no1)C2 class_label="Not satisfied"
line_notation=CCOC(=O)NN=C1C[C@@H](O)[C@@H](O)[C@@H]2[C@@H]3C(=O)N(C4CCCCC4)C(=O)[C@@H]3CC[C@@H]12 class_label=Satisfied
line_notation=C[C@@H]1CC[C@H]2C(=O)O[C@H](COc3ccc(C(C)(C)C)cc3)CN2[C@H]1c1ccc(Br)cc1 class_label="Not satisfied"
